testSystem: T1, human IL-11 (human, UniProt P20809 22-199)
T1 sequence: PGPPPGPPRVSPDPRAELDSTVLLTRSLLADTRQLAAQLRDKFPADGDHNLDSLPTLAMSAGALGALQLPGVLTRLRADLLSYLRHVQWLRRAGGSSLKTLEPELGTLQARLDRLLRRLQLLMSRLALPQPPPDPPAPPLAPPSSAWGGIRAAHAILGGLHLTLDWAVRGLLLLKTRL
assayNotes: cell-based or functional assay
Decide using IC50, RGA 1 alone. Strictly below 100 nM: yes. Equal to or above 100 nM: no.

{"binder": "TPP-31289 (antibody, IgG4, V domains shown) VH: EVQLLESGGGLVQPGRSLRLSCAASGFTFSHYDMNWLRQAPGKGLEWVGVISYDGSNKFYADFVKGRFTISRDNSKNTLYLQMNSLRAEDTAVYYCARTPGSHFDYWGQGTLVTVSS VL: QSVLTQPPSASGTPGQRVTISCSGSSSNIGNNAVNWYQQLPGTAPKLLIYYDDLLPSGVPDRFSGSKSGTSASLAISGLRSEDEADYYCSAWDDSLNGVVFGGGTKLTVL", "group": "yes"}
{"binder": "TPP-31278 (antibody, IgG4, V domains shown, hIgG4 SPLE, lambda) VH: EVQLLESGGGLVQPGGSLRLSCAASGFTFSHYDMNWLRQAPGKGLEWVGVISYDGSNKFYADFVKGRFTISRDNSKNTLYLQMNSLRAEDTAVYYCARTPGSHFDYWGQGTLVTVSS VL: QSVLTQPPSASGTPGQRVTISCSGSSSNIGNNYVNWYQQLPGTAPKLLIYYDDLLPSGVPDRFSGSKSGTSASLAISGLRSEDEADYYCSAWDDSLNGVVFGGGTKLTVL", "group": "yes"}
{"binder": "TPP-31307 (antibody, IgG4, V domains shown) VH: EVQLLESGGGLVQPGGSLRLSCAASGFTFSHYDMNWLRQAPGKGLEWVGVISYDASNKFYADFVKGRFTISRDNSKNTLYLQMNSLRAEDTAVYYCARTPGSHFDYWGQGTLVTVSS VL: QSVLTQPPSASGTPGQRVTISCSGSSSNIGNNAVNWYQQLPGTAPKLLIYYDDLLPSGVPDRFSGSKSGTSASLAISGLRSEDEADYYCSAWDDSLNAVVFGGGTKLTVL", "group": "no"}
{"binder": "TPP-31286 (antibody, IgG4, V domains shown) VH: QVQLLESGGGLVQPGGSLRLSCAASGFTFSHYDMNWLRQAPGKGLEWVGVISYDGSNKFYADFVKGRFTISRDNSKNTLYLQMNSLRAEDTAVYYCARTPGSHFDYWGQGTLVTVSS VL: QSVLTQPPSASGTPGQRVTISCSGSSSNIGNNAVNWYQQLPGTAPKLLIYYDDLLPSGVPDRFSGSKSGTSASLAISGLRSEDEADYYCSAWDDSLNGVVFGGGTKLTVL", "group": "yes"}
{"binder": "TPP-31298 (antibody, IgG4, V domains shown) VH: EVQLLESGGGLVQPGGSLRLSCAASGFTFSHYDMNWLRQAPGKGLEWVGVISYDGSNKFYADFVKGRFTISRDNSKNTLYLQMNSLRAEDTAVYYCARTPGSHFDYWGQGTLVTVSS VL: QSVLTQPPSASGTPGQRVTISCSGSSSNIGNNAVNWYQQLPGTAPKLLIYYDDLLPSGVPDRFSGSKSGTSASLAISGLRSEDEADYYCSAWDDSLSGVVFGGGTKLTVL", "group": "no"}
{"binder": "TPP-31305 (antibody, IgG4, V domains shown) VH: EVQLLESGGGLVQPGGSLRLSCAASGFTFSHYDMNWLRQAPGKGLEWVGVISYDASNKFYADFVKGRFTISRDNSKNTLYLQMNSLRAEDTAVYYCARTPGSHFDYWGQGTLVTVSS VL: QSVLTQPPSASGTPGQRVTISCSGSSSNIGNNAVNWYQQLPGTAPKLLIYYDDLLPSGVPDRFSGSKSGTSASLAISGLRSEDEADYYCSAWDDSLQGVVFGGGTKLTVL", "group": "no"}
{"binder": "TPP-31277 (antibody, IgG4, V domains shown, hIgG4 SPLE, lambda) VH: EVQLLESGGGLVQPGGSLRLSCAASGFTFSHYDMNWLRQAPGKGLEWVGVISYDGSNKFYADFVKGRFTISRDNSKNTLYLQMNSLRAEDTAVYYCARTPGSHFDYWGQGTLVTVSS VL: QSVLTQPPSASGTPGQRVTISCSGSSSNIGSNAVNWYQQLPGTAPKLLIYYDDLLPSGVPDRFSGSKSGTSASLAISGLRSEDEADYYCSAWDDSLNGVVFGGGTKLTVL", "group": "no"}
{"binder": "TPP-31291 (antibody, IgG4, V domains shown) VH: EVQLLESGGGLVQPGGSLRLSCAASGFTFSHYGMNWLRQAPGKGLEWVGVISYDGSNKFYADFVKGRFTISRDNSKNTLYLQMNSLRAEDTAVYYCARTPGSHFDYWGQGTLVTVSS VL: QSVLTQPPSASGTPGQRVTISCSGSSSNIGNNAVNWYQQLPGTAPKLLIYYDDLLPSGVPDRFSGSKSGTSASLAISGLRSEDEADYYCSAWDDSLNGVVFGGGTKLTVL", "group": "no"}
{"binder": "TPP-31290 (antibody, IgG4, V domains shown) VH: EVQLLESGGGLVQPGGSLRLSCAASGFTFSSYDMNWLRQAPGKGLEWVGVISYDGSNKFYADFVKGRFTISRDNSKNTLYLQMNSLRAEDTAVYYCARTPGSHFDYWGQGTLVTVSS VL: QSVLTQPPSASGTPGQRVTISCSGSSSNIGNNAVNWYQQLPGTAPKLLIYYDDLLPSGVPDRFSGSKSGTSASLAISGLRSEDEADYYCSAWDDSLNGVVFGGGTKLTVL", "group": "no"}
